target: mouse TAAR1 (Mus musculus (Mouse)); assay: Radioligand binding assay on mouse TAAR1
Sequence (Q923Y8 whole entry): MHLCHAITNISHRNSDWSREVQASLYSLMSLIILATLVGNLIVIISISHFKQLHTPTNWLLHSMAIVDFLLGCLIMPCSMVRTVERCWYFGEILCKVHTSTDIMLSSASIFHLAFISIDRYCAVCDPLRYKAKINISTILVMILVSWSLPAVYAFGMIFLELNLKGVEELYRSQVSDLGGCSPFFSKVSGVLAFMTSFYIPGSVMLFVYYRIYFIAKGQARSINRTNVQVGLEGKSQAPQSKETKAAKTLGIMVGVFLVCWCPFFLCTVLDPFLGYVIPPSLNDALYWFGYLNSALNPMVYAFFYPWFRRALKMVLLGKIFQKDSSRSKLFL
reportedEndpoint: Ki (nM)
Report the figure in nM without appending any unit label.

// known answers, use as guide
{"querySmiles": "O=C(CCC(F)(F)F)Nc1ccc([C@@H]2O[C@H]3CN[C@@H]2C3)cc1", "measuredTarget": "mouse TAAR1 (Mus musculus (Mouse))", "Ki, nM": 31}
{"querySmiles": "O=C(Nc1ccc(F)cc1)c1ccc([C@@H]2O[C@H]3CN[C@@H]2C3)cc1", "measuredTarget": "mouse TAAR1 (Mus musculus (Mouse))", "Ki, nM": 145}
{"querySmiles": "O=C(Nc1ccc(Cl)cc1)Nc1cccc([C@@H]2O[C@H]3CN[C@@H]2C3)c1", "measuredTarget": "mouse TAAR1 (Mus musculus (Mouse))", "Ki, nM": 1280}

Prompt: Report measured Ki; entry is O=C(Nc1ccc([C@H]2O[C@@H]3CN[C@H]2C3)cc1)c1ccc(C(F)(F)F)nc1
Response: 11.1

Prompt: Report measured Ki; entry is CCCc1n[nH]c(C(=O)Nc2ccc([C@@H]3O[C@H]4CN[C@@H]3C4)cc2)c1Cl
Response: 3.1

Prompt: Report measured Ki; entry is CCCc1n[nH]c(C(=O)Nc2ccc([C@@H]3O[C@H]4CN[C@@H]3C4)cc2)c1F
Response: 4.2

Prompt: Report measured Ki; entry is O=C(Nc1ccc([C@H]2O[C@@H]3CN[C@H]2C3)cc1)c1cccc(Cl)c1
Response: 4.6

Prompt: Report measured Ki; entry is FC(F)(F)c1ccc(Nc2ccc([C@@H]3O[C@H]4CN[C@@H]3C4)cc2)nc1
Response: 3.9

====

biological target: rat TAAR1 (Rattus norvegicus (Rat), UniProt Q923Y9); experiment: Radioligand binding assay on rat TAAR1;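 note: membranes from HEK293 cells stably transfected with rat TAAR1, tritiated TAAR1 radioligand, 1 h incubation at 4 °C, nonspecific binding determined with excess unlabeled ligand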
Sequence (Q923Y9 whole entry): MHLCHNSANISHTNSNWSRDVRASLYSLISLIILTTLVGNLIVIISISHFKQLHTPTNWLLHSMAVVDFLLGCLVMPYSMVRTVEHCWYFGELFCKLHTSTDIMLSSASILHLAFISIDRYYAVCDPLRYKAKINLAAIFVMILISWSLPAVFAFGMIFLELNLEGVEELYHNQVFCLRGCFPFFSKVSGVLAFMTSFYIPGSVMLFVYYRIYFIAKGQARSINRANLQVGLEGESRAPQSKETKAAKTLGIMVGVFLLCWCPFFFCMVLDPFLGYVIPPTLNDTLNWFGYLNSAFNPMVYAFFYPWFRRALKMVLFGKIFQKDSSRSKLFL
Binary label based on Ki with cut-off 0.5 µM: below gives TRUE, not below gives FALSE.

Record excerpt, results attached:
{"querySmiles": "Clc1ccc(Nc2ccc([C@H]3O[C@@H]4CN[C@H]3C4)cc2)nc1", "discreteLabel": "TRUE"}
{"querySmiles": "O=C(NCc1ccc(Cl)cc1)c1ccc([C@@H]2O[C@H]3CN[C@@H]2C3)cc1", "discreteLabel": "FALSE"}
{"querySmiles": "O=C(Nc1ccc([C@H]2O[C@@H]3CN[C@H]2C3)cc1)c1ccc(C(F)(F)F)cn1", "discreteLabel": "FALSE"}
{"querySmiles": "CCOc1ccc(NC(=O)c2ccc([C@@H]3O[C@H]4CN[C@@H]3C4)cc2)cc1", "discreteLabel": "FALSE"}
{"querySmiles": "CCc1ncc(C(=O)Nc2ccc([C@H]3O[C@@H]4CN[C@H]3C4)cc2)cn1", "discreteLabel": "TRUE"}
{"querySmiles": "O=C(Nc1ccc(Cl)cc1)c1ccc([C@H]2O[C@@H]3CN[C@H]2C3)cc1", "discreteLabel": "TRUE"}
{"querySmiles": "Brc1ccc([C@@H]2O[C@H]3CN[C@@H]2C3)cc1", "discreteLabel": "TRUE"}

Note: attention shifts to another entry.
Prompt: Consider the molecule O=C(Nc1ccc(Cl)nc1)c1ccc([C@H]2O[C@@H]3CN[C@H]2C3)cc1 . Is its Ki strictly less than 0.5 µM?
Response: FALSE

====

biological target: rat TAAR1 (Rattus norvegicus (Rat)); assay: Radioligand binding assay on rat TAAR1
Reported Ki values are given for each entry in this list.
Field note: include the unit after the figure.

// known answers, use as guide
{"querySmiles": "CCc1n[nH]c(C(=O)Nc2ccc([C@@H]3O[C@H]4CN[C@@H]3C4)cc2)c1Br", "Ki": "127 nM"}
{"querySmiles": "O=C(COCC(F)(F)F)Nc1ccc([C@@H]2O[C@H]3CN[C@@H]2C3)cc1", "Ki": "857 nM"}
{"querySmiles": "FC(F)(F)c1ccc(Nc2ccc([C@@H]3O[C@H]4CN[C@@H]3C4)cc2)nc1", "Ki": "15.3 nM"}

Now for the compound whose Ki we want.
Prompt: Supply Ki measured with rat TAAR1 (Rattus norvegicus (Rat)) for CC(C)c1cc(C(=O)Nc2ccc([C@@H]3O[C@H]4CN[C@@H]3C4)cc2)[nH]n1 .
Response: 239 nM
